The reported numbers originate from PubChem BioAssay AID1919013.

# Tested on: LG0703-F498-PDC complex spheroid growth;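 note: luminescence taken as a proxy for viable cell amount; percent of DMSO vehicle control where 100% means growth equal to vehicle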
# protocol notes: Anticancer human tumor LG0703-F498-PDC patient-derived lung adenocarcinoma cell line growth inhibition [AhR]
# protocol conditions: second compound 1 µM; first compound 3.16 µM; stronger effect = lower value
Give measured viability, T/C for each item. Keep answers brief.
Reply with just the number (in %).

-- ask What reported viability, T/C corresponds to CC1COCCN1c1cc(C2(S(C)(=N)=O)CC2)nc(-c2ccnc3[nH]ccc23)n1 (stereo unspecified) + CC(CO)NC(=O)c1cc(-c2ccc(Cl)cc2)nn(-c2cnn(C)c2)c1=O on LG0703-F498-PDC complex spheroid growth?
-- reply 68.8

-- ask What reported viability, T/C corresponds to COc1ccc([C@@H](O)c2cc(-c3ncnc4cc(N5CCOCC5)ccc34)c(F)cc2Cl)nn1 + Cc1ccccc1N=Nc1ccc(NC(=O)c2ccnn2C)c(C)c1 on LG0703-F498-PDC complex spheroid growth?
-- reply 55

-- ask What reported viability, T/C corresponds to O=C(C=Cc1cccc(S(=O)(=O)Nc2ccccc2)c1)NO + Cc1cncc(-c2nc(NCCc3c[nH]c4ccccc34)c3ncn(C(C)C)c3n2)c1 on LG0703-F498-PDC complex spheroid growth?
-- reply 6.31

-- ask What reported viability, T/C corresponds to Nc1ccccc1NC(=O)c1ccc(CNC(=O)OCc2cccnc2)cc1 + Cc1cncc(-c2nc(NCCc3c[nH]c4ccccc34)c3ncn(C(C)C)c3n2)c1 on LG0703-F498-PDC complex spheroid growth?
-- reply 2.86

-- ask What reported viability, T/C corresponds to Nc1ccn(C2OC(CO)C(O)C2(F)F)c(=O)n1 (stereo unspecified) + Cc1ccccc1N=Nc1ccc(NC(=O)c2ccnn2C)c(C)c1 on LG0703-F498-PDC complex spheroid growth?
-- reply 29.5

-- ask What reported viability, T/C corresponds to CC(C)c1c(-c2ccccc2)nc2c(C#N)c[nH]n2c1=O + Cc1ccccc1N=Nc1ccc(NC(=O)c2ccnn2C)c(C)c1 on LG0703-F498-PDC complex spheroid growth?
-- reply 87.6
